- ASSAY SYSTEM: Jack bean urease (Canavalia ensiformis, UniProt P07374)
- Sequence (P07374 whole entry, looked up): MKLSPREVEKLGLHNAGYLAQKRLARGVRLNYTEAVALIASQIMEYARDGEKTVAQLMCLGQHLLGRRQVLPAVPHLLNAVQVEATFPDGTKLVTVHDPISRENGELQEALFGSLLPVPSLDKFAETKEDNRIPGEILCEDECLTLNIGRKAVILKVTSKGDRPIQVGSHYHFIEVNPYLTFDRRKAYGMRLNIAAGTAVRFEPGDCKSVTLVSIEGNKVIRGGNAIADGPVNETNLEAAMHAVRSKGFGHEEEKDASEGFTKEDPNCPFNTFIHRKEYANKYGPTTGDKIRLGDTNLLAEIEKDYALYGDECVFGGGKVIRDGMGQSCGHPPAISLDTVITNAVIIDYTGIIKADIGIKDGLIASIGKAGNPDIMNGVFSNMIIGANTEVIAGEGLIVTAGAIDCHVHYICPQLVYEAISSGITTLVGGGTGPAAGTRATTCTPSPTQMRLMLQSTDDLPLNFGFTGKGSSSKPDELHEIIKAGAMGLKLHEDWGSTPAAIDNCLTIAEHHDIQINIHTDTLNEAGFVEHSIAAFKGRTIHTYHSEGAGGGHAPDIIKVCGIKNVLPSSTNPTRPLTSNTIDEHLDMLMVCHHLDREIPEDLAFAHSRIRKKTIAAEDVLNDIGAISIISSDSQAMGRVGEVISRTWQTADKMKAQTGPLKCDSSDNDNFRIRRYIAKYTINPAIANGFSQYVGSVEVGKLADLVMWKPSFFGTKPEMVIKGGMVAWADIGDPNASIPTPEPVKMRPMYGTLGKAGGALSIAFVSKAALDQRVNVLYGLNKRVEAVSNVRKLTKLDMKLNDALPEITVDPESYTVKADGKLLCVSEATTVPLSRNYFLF
- ASSAY TEXT: biochemical
- Type: biochemical
- TEST CONDITIONS: unit inferred; read-out: IC50, urease (printed in Fig. 6)
- Description: The inhibition potential of the isolated compounds against urease was investigated using a SpectraMax M2 reader using 96-well microplates. […] In 96-well plates were incubated at 37 °C for 15 min, reaction mixtures consisting of 25 μL of test compounds (each 0.5 mM), 25 μL of enzyme solution (Jack bean urease) and 55 μL of buffers containing 20.79 mM urea. […] The microplate reader (Molecular Devices, USA) was used to measure the increase in absorbance at 650 nm after 50 min. […]
MEASURED ATTRIBUTE: pIC50
Scale: negative log10 of molar concentration, which is what pIC50 denotes.

Hey, Jack bean urease (Canavalia ensiformis, UniProt P07374) data for O=c1cc(-c2ccc(O)c(O)c2)oc2cc(O)c([C@@H]3O[C@H](CO)[C@@H](O)[C@H](O)[C@H]3O)c(O)c12 [Compound 7, Luteolin-6-C-β-D-glucopyranoside] : pIC50 came out at 5.91

These data points were gathered from paper PMC10945739.
